Values were extracted from paper PMC8998978.

# System: Panc-1 cells
# assay procedure: Cell viability assay (SRB)
# Format: cell-based
# cond: Homo sapiens, Panc-1, 72 h
measured property: IC50 (µM)
The figure you give is taken to be in µM; do not add the unit.

The recorded IC50 for CCOc1ccc(Oc2ccc(C3=NN(C4=NC(=O)CS4)C(c4cc(O)c(O)c(Br)c4Br)C3)cc2)cc1 (stereo not shown) is 6.3

* * *

# tested on: recombinant human SHP2 protein (Homo sapiens)
# assay procedure: SHP2 inhibition assay (pNPP substrate)
# Assay type: biochemical
# cond: pNPP 4 mM, SHP2 240 nM, 37 °C, 30 min; means ± SD
Lab note: class by IC50, see A = under 6 µM, B = from 6 µM up to 10 µM, C = 10 µM and over

The examples below pair each entry with its known result.
In [3]: df
Out[3]:
                                   compound                                 tested_on  qualitative_label
0  CC(C)(C)c1ccc(Oc2ccc(C3=NN(C4=NC(=O)CS4)C(c4ccc(O)c(O)c4)C3)cc2)cc1 (stereo not drawn) [Compound 4m]  recombinant human SHP2 protein (Homo sapiens)                  A
1  CCOc1ccc(Oc2ccc(C3=NN(C4=NC(=O)CS4)C(c4cc(O)c(O)c(Br)c4Br)C3)cc2)cc1 (stereo not drawn) [Compound 4o]  recombinant human SHP2 protein (Homo sapiens)                  A
2  COc1ccc(C2=NN(C(N)=S)C(c3ccc(O)c(O)c3)C2)cc1 (stereo not drawn) [Compound 4f]  recombinant human SHP2 protein (Homo sapiens)                  C
3  CC(C)(C)c1ccc(Oc2ccc(C3=NN(C(N)=S)C(c4ccc(O)c(O)c4)C3)cc2)cc1 (stereo not drawn) [Compound 4h]  recombinant human SHP2 protein (Homo sapiens)                  B
4  CCCC(=O)N1N=C(c2ccc(Oc3ccccc3)cc2)CC1c1ccc(O)c(O)c1 (stereo not drawn) [Compound 4d]  recombinant human SHP2 protein (Homo sapiens)                  B
5  O=C1CSC(N2N=C(c3ccc(Oc4ccccc4)cc3)CC2c2ccc(O)c(O)c2)=N1 (stereo not drawn) [Compound 4k]  recombinant human SHP2 protein (Homo sapiens)                  A

[Q] Input CCC(=O)N1N=C(c2ccc(Oc3ccccc3)cc2)CC1c1ccc(O)c(O)c1 (stereo not drawn) [Compound 4c] ; output its category
[A] C

[Q] Band of COc1ccc(C2=NN(C3=NC(=O)CS3)C(c3ccc(O)c(O)c3)C2)cc1 (stereo not drawn) [Compound 4j] ?
[A] C

* * *

# Test system: SK-OV-3 cells
# assay procedure: Cell viability assay (SRB)
# Type: cell-based
# cond: Homo sapiens, SK-OV-3, 72 h
measured property: IC50 (µM)
Output spec: scalar in µM, unitless text.

So, CCOc1ccc(Oc2ccc(C3=NN(C4=NC(=O)CS4)C(c4cc(O)c(O)c(Br)c4Br)C3)cc2)cc1 (stereo not shown) [Compound 4o] ? Its IC50 was 8.44

* * *

# Test system: K562 cells
# assay procedure: Cell viability assay (MTT)
# Assay type: cell-based
# cond: Homo sapiens, K562, 72 h
measured property: IC50 (µM)
Write the answer as a number in µM, unit excluded.

Lab book: IC50 of CCOc1ccc(Oc2ccc(C3=NN(C4=NC(=O)CS4)C(c4cc(O)c(O)c(Br)c4Br)C3)cc2)cc1 (stereo not shown) noted as 9.6

* * *

# tested on: recombinant human SHP2 protein (Homo sapiens, UniProt Q06124)
# Sequence (Q06124 whole entry): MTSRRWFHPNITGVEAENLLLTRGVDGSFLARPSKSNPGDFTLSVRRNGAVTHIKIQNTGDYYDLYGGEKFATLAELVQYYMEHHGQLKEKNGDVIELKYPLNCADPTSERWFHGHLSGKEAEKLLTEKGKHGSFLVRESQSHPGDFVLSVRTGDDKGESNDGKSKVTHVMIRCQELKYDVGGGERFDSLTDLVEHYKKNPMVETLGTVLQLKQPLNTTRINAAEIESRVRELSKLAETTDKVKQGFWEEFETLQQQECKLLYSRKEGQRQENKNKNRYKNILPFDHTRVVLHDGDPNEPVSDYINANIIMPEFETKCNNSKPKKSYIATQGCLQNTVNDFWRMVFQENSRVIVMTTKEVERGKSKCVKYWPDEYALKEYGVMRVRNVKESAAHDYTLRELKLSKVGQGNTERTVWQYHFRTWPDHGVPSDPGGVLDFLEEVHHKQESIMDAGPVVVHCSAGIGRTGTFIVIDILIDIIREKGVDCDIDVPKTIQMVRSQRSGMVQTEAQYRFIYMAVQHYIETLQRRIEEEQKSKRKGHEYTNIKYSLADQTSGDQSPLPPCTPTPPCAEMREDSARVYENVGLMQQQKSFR
# assay procedure: SHP2 inhibition assay (pNPP substrate)
# Format: biochemical
# cond: pNPP 4 mM, SHP2 240 nM, 37 °C, 30 min; means ± SD
# Description: pGEX-4T1 SHP2 WT (plasmid #8322) was purchased from Addgene. […] Then, 0.2 mM IPTG (Sangon Biotech, Shanghai, China) was added to induce the expression of protein at 30 °C for 4 h followed by centrifugation and cells collection. […] The amount of product p-nitrophenol was determined by the absorbance at 405 nm in a multimode reader (Berthold Technologies GmbH & Co.KG, Bad Wildbad, Baden Württemberg, Germany). […]
Classify: Y when IC50 is strictly less than 6 µM; N when IC50 is not.

Worked examples, 2 compounds total:
                                   compound  qualitative_label
0  CC(C)(C)c1ccc(Oc2ccc(C3=NN(C=O)C(c4ccc(O)c(O)c4)C3)cc2)cc1 (stereo not shown)                  N
1  CCOc1ccc(Oc2ccc(C3=NN(C4=NC(=O)CS4)C(c4ccc(O)c(O)c4)C3)cc2)cc1 (stereo not shown)                  Y

[Q] Is 6 µM strictly greater than the compound's reported IC50? compound: CCOc1ccc(Oc2ccc(C3=NN(C=O)C(c4ccc(O)c(O)c4)C3)cc2)cc1 (stereo not shown)
[A] N

[Q] Please let me know if O=C1CSC(N2N=C(c3ccc(Br)cc3)CC2c2ccc(O)c(O)c2)=N1 (stereo not shown) shows IC50 below 6 µM.
[A] N

[Q] IC50 strictly < 6 µM for this compound? NC(=S)N1N=C(c2ccc(Br)cc2)CC1c1ccc(O)c(O)c1 (stereo not shown)
[A] N
